experiment: biodistribution: uptake in normal tissues; type: in vivo, athymic BALB/c nude mice; details: female, athymic BALB/c nude, mouse, pancreas, iv, total radioactivity; CCK2R expressing organ; 1 or 4 h p.i.; read-out: uptake in pancreas
parameter measured: tissue uptake

Data request: Entry CCCC[C@@H](C(=O)N[C@@H](CC(=O)O)C(=O)N[C@@H](Cc1cccc2ccccc12)C(N)=O)N(C)C(=O)[C@H](Cc1c[nH]c2ccccc12)NC(=O)CNC(=O)[C@H](Cc1ccc(O)cc1)NC(=O)[C@H](C)NC(=O)[C@@H](CCC(=O)O)NC(=O)CN1CCN(CC(=O)O)CCN(CC(=O)O)CCN(CC(=O)O)CC1 [DOTA-MGS5] : reported tissue uptake = ?
Data returned: 2 to 3 %ID/g

###

Target: human CCK2R (Homo sapiens)
Construct: expressed in transfected cells; host or cells: A431 human epidermoid carcinoma cells (A431-CCK2R), plasmid pCR3.1, provided by Dr. Luigi Aloj
Sequence (P32239 1-447): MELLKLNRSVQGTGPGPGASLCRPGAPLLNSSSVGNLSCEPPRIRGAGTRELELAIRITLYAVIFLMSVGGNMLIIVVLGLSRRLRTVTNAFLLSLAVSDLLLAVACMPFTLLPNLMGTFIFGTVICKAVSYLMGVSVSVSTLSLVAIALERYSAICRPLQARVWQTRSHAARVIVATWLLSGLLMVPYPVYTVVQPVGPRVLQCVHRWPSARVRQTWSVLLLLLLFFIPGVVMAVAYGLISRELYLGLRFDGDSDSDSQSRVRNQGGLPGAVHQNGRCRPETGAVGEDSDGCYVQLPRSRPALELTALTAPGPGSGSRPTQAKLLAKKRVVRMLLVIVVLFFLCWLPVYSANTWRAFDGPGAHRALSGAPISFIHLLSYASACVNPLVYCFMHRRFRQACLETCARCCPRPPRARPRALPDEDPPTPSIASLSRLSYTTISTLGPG
Assay: CCK2R competition binding assay against [125I]Tyr12-gastrin-I on A431-CCK2R cells
Details: displacement of [125I]Tyr12-gastrin-I, A431-CCK2R cells, 1 h at RT; read-out: IC50
Where a SMILES comes first, the peptide text is derived from it. [ ]: non-standard residue; d: D form. The star is where a group is joined. DOTA = O=C(O)CN1CCN(CC(=O)O)CCN(CC(=O)*)CCN(CC(=O)O)CC1; 1Nal = N[C@@H](Cc1cccc2ccccc12)C(=O)O; NMeNle = CCCC[C@H](NC)C(=O)O
For each of the compounds below, state its pIC50.
Give bare numbers, as −log10 of the molar value.

Guide cases for pIC50, answers given:
• CSCC[C@H](NC(=O)[C@H](Cc1c[nH]c2ccccc12)NC(=O)CNC(=O)[C@H](Cc1ccc(O)cc1)NC(=O)[C@H](C)NC(=O)[C@@H](CCC(=O)O)NC(=O)CN1CCN(CC(=O)O)CCN(CC(=O)O)CCN(CC(=O)O)CC1)C(=O)N[C@@H](CC(=O)O)C(=O)N[C@@H](Cc1ccccc1)C(N)=O [DOTA-MG11, reference compound] ({DOTA}-[dE]AYGWMDF-NH2) = 9.05
• CCCC[C@@H](C(=O)N[C@@H](CC(=O)O)C(=O)N[C@@H](Cc1cccc2ccccc12)C(N)=O)N(C)C(=O)[C@H](Cc1c[nH]c2ccccc12)NC(=O)CNC(=O)[C@H](Cc1ccc(O)cc1)NC(=O)[C@H](C)NC(=O)[C@@H](CCC(=O)O)NC(=O)CN1CCN(CC(=O)O)CCN(CC(=O)O)CCN(CC(=O)O)CC1 [DOTA-MGS5] = 9.40

--- query ---
Data request: Query the reported pIC50 for human CCK2R (Homo sapiens); item: CCCC[C@@H](C(=O)N[C@@H](CC(=O)O)C(=O)N[C@@H](Cc1cccc2ccccc12)C(N)=O)N(C)C(=O)[C@H](Cc1c[nH]c2ccccc12)NC(=O)CNC(=O)[C@H](Cc1ccc(O)cc1)NC(=O)[C@@H]1CCCN1C(=O)[C@@H](CCC(=O)O)NC(=O)CN1CCN(CC(=O)O)CCN(CC(=O)O)CCN(CC(=O)O)CC1 [DOTA-MGS8] ({DOTA}-[dE]PYGW[NMeNle]D[1Nal]-NH2)
Data returned: 8.80

###

system: serum proteins; experiment: protein binding to serum proteins (Sephadex G-50 size-exclusion chromatography); type: in vitro ADME; conditions: fresh human serum, 37° C., 24 h, read-out: Percentage of radioligand bound to serum proteins after 24 h incubation (converted)
Where a SMILES comes first, the peptide text is derived from it. [ ]: non-standard residue; d: D form. The star is where a group is joined. DOTA = O=C(O)CN1CCN(CC(=O)O)CCN(CC(=O)*)CCN(CC(=O)O)CC1
parameter measured: fraction unbound at 24 h, 500 pmol/mL
Numbers only.

- CCCC[C@@H](C(=O)N[C@@H](CC(=O)O)C(=O)N(C)[C@@H](Cc1cccc2ccccc12)C(N)=O)N(C)C(=O)[C@H](Cc1c[nH]c2ccccc12)NC(=O)CNC(=O)[C@H](Cc1ccc(O)cc1)NC(=O)[C@H](C)NC(=O)[C@@H](CCC(=O)O)NC(=O)CN1CCN(CC(=O)O)CCN(CC(=O)O)CCN(CC(=O)O)CC1 [^111In-DOTA-MGS11, metal not drawn]: 0.602
- CSCC[C@H](NC(=O)[C@H](Cc1c[nH]c2ccccc12)NC(=O)CNC(=O)[C@H](Cc1ccc(O)cc1)NC(=O)[C@H](C)NC(=O)[C@@H](CCC(=O)O)NC(=O)CN1CCN(CC(=O)O)CCN(CC(=O)O)CCN(CC(=O)O)CC1)C(=O)N[C@@H](CC(=O)O)C(=O)N[C@@H](Cc1ccccc1)C(N)=O [^111In-DOTA-MG11, metal not drawn, reference compound] ({DOTA}-[dE]AYGWMDF-NH2): 0.938
- CCCC[C@@H](C(=O)N[C@@H](CC(=O)O)C(=O)N[C@@H](Cc1cccc2ccccc12)C(N)=O)N(C)C(=O)[C@H](Cc1c[nH]c2ccccc12)NC(=O)CNC(=O)[C@H](Cc1ccc(O)cc1)NC(=O)[C@H](C)NC(=O)[C@@H](CCC(=O)O)NC(=O)CN1CCN(CC(=O)O)CCN(CC(=O)O)CCN(CC(=O)O)CC1 [^111In-DOTA-MGS5, metal not drawn]: 0.557

--- query ---
Data request: Entry CCCC[C@@H](C(=O)N[C@@H](CC(=O)O)C(=O)N(C)[C@@H](Cc1ccccc1)C(N)=O)N(C)C(=O)[C@H](Cc1c[nH]c2ccccc12)NC(=O)CNC(=O)[C@H](Cc1ccc(O)cc1)NC(=O)[C@H](C)NC(=O)[C@@H](CCC(=O)O)NC(=O)CN1CCN(CC(=O)O)CCN(CC(=O)O)CCN(CC(=O)O)CC1 [^111In-DOTA-MGS4, metal not drawn, reference compound] : reported fraction unbound at 24 h, 500 pmol/mL = ?
Data returned: 0.881
